Target: Receptor tyrosine-protein kinase erbB-2 (Homo sapiens)
Test: reducers of endogenous Her2 protein level, primary screen, SKBR3 breast tumor cells, AlphaScreen, ATP viability (AID 461);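 also: lower value means less Her2 protein in the cells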
Conditions: 18-24 h, at 10 µM, active compounds read low
// Her2 level lookup, one value per entry
Write down the numeric answer in % and omit the unit.

Some solved cases for reference:
Cn1c2ccc(F)cc2c2ncn(CCN3CCOCC3)c(=O)c21 ... 82.5
CC(C)C(OC(=O)c1ccco1)C(=O)NCc1ccccc1 (stereo not drawn) ... 97
CC1CCN(CCn2c(=S)[nH]c3ncccc3c2=O)CC1 ... 95
N#CCCN(C(=O)Nc1ccc(Cl)cc1)c1ccccc1 ... 111
CC(C)CNS(=O)(=O)c1ccc(CCC(=O)N2CCOCC2)cc1 ... 94

Query: Observed Her2 level on Receptor tyrosine-protein kinase erbB-2 (Homo sapiens) for FC(F)(F)c1nnc2ccc(NCn3nnc4ccccc43)nn12 , please.
Reply: 89.5

Query: Form: Entry = COc1ccc(OC)c(S(=O)(=O)Nc2ccccc2C(=O)O)c1 | System = Receptor tyrosine-protein kinase erbB-2 (Homo sapiens) | Her2 level = ____
Reply: 100

Query: Observed Her2 level on Receptor tyrosine-protein kinase erbB-2 (Homo sapiens) for Cc1occc1C(=O)Nc1ccccc1NC(=O)c1ccoc1C , please.
Reply: 101

Query: What measured Her2 level is associated with Cc1ccc(NC(=O)CS(=O)CC(=O)NCC2CCCO2)cc1 (stereo not drawn) on Receptor tyrosine-protein kinase erbB-2 (Homo sapiens)?
Reply: 120

Query: Reported Her2 level for Receptor tyrosine-protein kinase erbB-2 (Homo sapiens), given O=C(Nc1ccccc1C(=O)N1CCN(c2ccccc2)CC1)c1ccco1 ?
Reply: 101

Query: Receptor tyrosine-protein kinase erbB-2 (Homo sapiens) / Her2 level / CCCCCn1c(CN2CCN(C(=O)OCC)CC2)nc2c1c(=O)[nH]c(=O)n2C : value?
Reply: 94.5

Query: Tell me reported Her2 level for Cc1noc(C)c1C(=O)OCC(=O)Nc1ccccc1C(=O)NC(C)c1ccccc1 (stereo not drawn) , tested with Receptor tyrosine-protein kinase erbB-2 (Homo sapiens).
Reply: 86

Query: Reported Her2 level for Receptor tyrosine-protein kinase erbB-2 (Homo sapiens), given Cc1nc2ncnn2c(N2CCC(C(=O)NC3CCCC3)CC2)c1Cc1ccccc1 ?
Reply: 95

Query: Hello, I am looking for reported Her2 level with Receptor tyrosine-protein kinase erbB-2 (Homo sapiens) for Cc1cc(C)c(C#N)c(SCc2[nH]nc3c2C(c2ccccc2)C(C#N)=C(N)O3)n1 (stereo not drawn) . Could you help?
Reply: 80.5

###

Assay: 384-well plate pilot, post-Golgi transport modulator project, inhibition of yeast transport mutant growth (AID 636)
Details: absorbance 615 nm, about 18 h, active compounds read high
Measured Attribute: inhibition (%)
Output spec: scalar in %, unitless text.

COc1ccc(N2CCN(Cc3nc(-c4ccc(Cl)cc4Cl)no3)CC2)cc1 ... -4.68

Query: Recorded inhibition for CCN1C(=O)OC2(CCCCC2)C1(C)O (stereo not given) , please?
Reply: 0.13

###

Assay: growth suppression of yeast trafficking mutant, preliminary HTS, modulators of trafficking downstream of Golgi apparatus project, 1536-format plate, OD 615 nm (AID 637)
Conditions: yeast transport mutant growth, absorbance 615 nm, 18 h; active compounds read high
Active and inactive are the calls of the source. Cut-off read from the data, not from the text of the source: active = inhibition above about 30%; inactive = the rest.
Measured Attribute: inhibition

CCc1nnc2n1N=C(c1ccc(-c3ccc(Cl)cc3Cl)o1)CS2 ... -3.17% (inactive)
CCOC(=O)c1c(NC(=O)OC)sc(C(=O)N(C)C)c1C ... -4% (inactive)
N#Cc1c(N)c(C(=O)c2ccccc2)n2c1CCCC2 ... -0.66% (inactive)
COCCNC(=O)C(c1ccc(C)o1)N(Cc1ccc(OC)cc1)C(=O)Cn1nnc2ccccc21 (stereo not given) ... -0.82% (inactive)
CCCCOc1ccccc1C(=O)NCCCC(=O)O ... -0.55% (inactive)
Oc1cc(NCc2cccnc2)ccc1-c1nc2ccccc2o1 ... 10.8% (inactive)
COc1ccc(OC)c(NC(=O)CCN2CCC(C)CC2)c1 ... 22.4% (inactive)
COc1ccc(-c2noc(-c3ccccc3C(=O)Nc3cccnc3)n2)cc1OC ... -2.38% (inactive)

For the next question, use this molecule.
Query: Give its inhibition value. Item: CC1(c2ccc(Cl)cc2)NC(=O)N(CC(=O)NC(=O)NCc2ccco2)C1=O (stereo not given)
Reply: -0.33% (inactive)
